These entries and their values trace back to PubChem BioAssay AID1159580.

test: chemical genetic growth profiling, strain panel (AID 1159580);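 also: tested at 20 µM; growth read once vehicle control cultures reached saturation at 30 °C; 1 = growth at the plate median or of vehicle wells; lower values mean less growth of the strain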; conditions: S. cerevisiae deletion strains, growth OD, locus YJL168C, strain set2, hits give low values
Screen size: about 5,500 compounds; about 2,000 (36%) were called active. Not shown: some 18% with an inconclusive outcome. This is one part of the list.
MEASURE: normalized growth
The answer should be written as a number, with no unit following it.

Worked examples, 10 compounds total:
{"COMPOUND": "CNC(=O)CSP(=S)(OC)OC", "normalized growth": 1.02}
{"COMPOUND": "O=C1OC(=O)C2C3CCC(O3)C12 (stereo unspecified)", "normalized growth": 0.984}
{"COMPOUND": "CC(C)=CCc1c(O)cc2occ(-c3ccc4c(c3)OCO4)c(=O)c2c1O", "normalized growth": 1.02}
{"COMPOUND": "CC1=C2[C@](C)(C=CC1=O)C[C@H](O)[C@H]1[C@H](C)C(=O)O[C@]21C", "normalized growth": 1.03}
{"COMPOUND": "COc1c2c(cc3occ(-c4ccc5c(c4)OCO5)c(=O)c13)OC(C)(C)C=C2", "normalized growth": 0.972}
{"COMPOUND": "C[N+]1(C)C2CC[C@H]1CC(OC(=O)C(O)c1ccccc1)C2 (stereo partly specified)", "normalized growth": 1.01}
{"COMPOUND": "CCN(CC)CCNC(=O)COc1ccc(OC)cc1", "normalized growth": 0.981}
{"COMPOUND": "O=C1c2ccccc2C(=O)c2c1ccc(O)c2O", "normalized growth": 0.52}
{"COMPOUND": "Cc1cccc(N(C)C(=S)Oc2ccc3ccccc3c2)c1", "normalized growth": 0.984}
{"COMPOUND": "C[C@H]1C(=O)O[C@@H]2CCN3CC=C(COC(=O)[C@](C)(O)[C@]1(C)O)[C@H]23", "normalized growth": 0.997}

In the following, a different compound is considered.
Given the compound COP(=S)(OC)SCn1nnc2ccccc2c1=O , write its reported normalized growth.
0.982

---

Below is a list of entries, each paired with its recorded normalized growth value.
assay: chemical genetic growth profiling, strain panel (AID 1159580);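 also: tested at 20 µM; growth read once vehicle control cultures reached saturation at 30 °C; 1 = growth at the plate median or of vehicle wells; lower values mean less growth of the strain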; conditions: S. cerevisiae deletion strains, growth OD, locus YKR091W, strain srl3, hits give low values
About 2,000 (36%) of roughly 5,500 compounds were called active. Inconclusive results (about 18%) are left out. Some of the results follow.
The answer should be written as a number, with no unit following it.

Worked examples, 5 compounds total:
{"COMPOUND": "CCOc1nc2cccc(C(=O)OC(C)OC(=O)OC3CCCCC3)c2n1Cc1ccc(-c2ccccc2-c2nn[nH]n2)cc1 (stereo unspecified)", "normalized growth": 1.02}
{"COMPOUND": "CC(C)CCCC(C)[C@H]1CCC2C3CC[C@H]4CC(=O)CC[C@]4(C)C3CC[C@@]21C (stereo partly specified)", "normalized growth": 0.984}
{"COMPOUND": "CCS(=O)(=O)CCn1c([N+](=O)[O-])cnc1C", "normalized growth": 0.999}
{"COMPOUND": "c1ccc2c(c1)[nH]c1cnccc12", "normalized growth": 1}
{"COMPOUND": "CCCc1nc(C(C)(C)O)c(C(=O)OCc2oc(=O)oc2C)n1Cc1ccc(-c2ccccc2-c2nn[nH]n2)cc1", "normalized growth": 0.981}

Given the compound COc1ccc2c(c1)[nH]c1c(C)nccc12 , write its reported normalized growth.
0.996
